Target: human integrin αvβ6 (Homo sapiens, UniProt P06756+P18564)
Sequence (P06756 31-992 limits assumed): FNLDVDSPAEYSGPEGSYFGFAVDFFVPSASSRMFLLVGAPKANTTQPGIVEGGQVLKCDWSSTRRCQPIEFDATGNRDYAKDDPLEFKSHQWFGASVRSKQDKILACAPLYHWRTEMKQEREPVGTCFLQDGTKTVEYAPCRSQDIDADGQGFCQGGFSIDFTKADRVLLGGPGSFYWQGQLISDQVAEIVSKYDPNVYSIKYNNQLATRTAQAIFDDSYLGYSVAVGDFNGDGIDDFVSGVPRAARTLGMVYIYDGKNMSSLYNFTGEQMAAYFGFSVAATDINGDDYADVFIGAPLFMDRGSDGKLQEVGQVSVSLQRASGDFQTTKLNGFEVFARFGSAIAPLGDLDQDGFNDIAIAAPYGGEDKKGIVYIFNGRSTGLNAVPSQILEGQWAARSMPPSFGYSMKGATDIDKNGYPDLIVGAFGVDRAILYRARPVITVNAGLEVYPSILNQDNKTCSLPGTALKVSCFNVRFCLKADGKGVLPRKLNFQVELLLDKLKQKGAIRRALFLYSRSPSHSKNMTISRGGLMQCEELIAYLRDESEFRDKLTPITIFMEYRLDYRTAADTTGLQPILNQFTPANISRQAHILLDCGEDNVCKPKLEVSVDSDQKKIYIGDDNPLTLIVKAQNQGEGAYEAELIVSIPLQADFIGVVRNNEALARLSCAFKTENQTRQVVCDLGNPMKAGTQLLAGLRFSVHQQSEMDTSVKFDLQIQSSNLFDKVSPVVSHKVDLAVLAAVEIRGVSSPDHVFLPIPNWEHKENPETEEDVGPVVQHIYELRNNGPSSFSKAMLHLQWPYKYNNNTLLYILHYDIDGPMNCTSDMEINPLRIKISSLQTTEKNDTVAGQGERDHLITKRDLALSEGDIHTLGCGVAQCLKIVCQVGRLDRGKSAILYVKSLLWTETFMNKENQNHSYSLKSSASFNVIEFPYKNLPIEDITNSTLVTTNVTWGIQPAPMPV
Sequence (P18564 22-707 limits assumed): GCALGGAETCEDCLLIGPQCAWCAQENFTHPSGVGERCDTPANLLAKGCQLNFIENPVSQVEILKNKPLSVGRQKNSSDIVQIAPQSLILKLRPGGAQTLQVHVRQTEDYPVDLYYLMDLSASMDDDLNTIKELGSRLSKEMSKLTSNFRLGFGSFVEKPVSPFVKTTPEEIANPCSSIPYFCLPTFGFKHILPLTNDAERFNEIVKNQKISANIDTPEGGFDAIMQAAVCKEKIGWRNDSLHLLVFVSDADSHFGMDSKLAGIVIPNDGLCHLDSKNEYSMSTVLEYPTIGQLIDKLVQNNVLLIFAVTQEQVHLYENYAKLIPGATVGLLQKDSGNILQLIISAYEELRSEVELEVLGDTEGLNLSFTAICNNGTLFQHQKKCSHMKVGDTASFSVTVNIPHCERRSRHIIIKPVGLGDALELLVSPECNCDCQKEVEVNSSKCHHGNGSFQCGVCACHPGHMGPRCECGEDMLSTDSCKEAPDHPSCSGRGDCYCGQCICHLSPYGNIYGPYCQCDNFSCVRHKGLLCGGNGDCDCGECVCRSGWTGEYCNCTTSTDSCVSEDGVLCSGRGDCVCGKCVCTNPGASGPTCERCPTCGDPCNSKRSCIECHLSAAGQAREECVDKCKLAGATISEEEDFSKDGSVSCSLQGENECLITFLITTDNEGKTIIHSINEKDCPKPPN
Test: Solid phase integrin binding assay (TGFβ1 LAP binding)
readout.kind: IC50

# query: IC50 of entry CC1(C(=O)N[C@@H](CCCCCCCc2ccc3c(n2)NCCC3)C(=O)O)CCOCC1 [Compound 1]
< 50 nM

----------
Target: human integrin αVβ1 (Homo sapiens, UniProt P05556+P06756)
Sequence (P06756 31-992 limits assumed): as the sequence (P06756 31-992 limits assumed) above
Sequence (P05556 21-728 limits assumed): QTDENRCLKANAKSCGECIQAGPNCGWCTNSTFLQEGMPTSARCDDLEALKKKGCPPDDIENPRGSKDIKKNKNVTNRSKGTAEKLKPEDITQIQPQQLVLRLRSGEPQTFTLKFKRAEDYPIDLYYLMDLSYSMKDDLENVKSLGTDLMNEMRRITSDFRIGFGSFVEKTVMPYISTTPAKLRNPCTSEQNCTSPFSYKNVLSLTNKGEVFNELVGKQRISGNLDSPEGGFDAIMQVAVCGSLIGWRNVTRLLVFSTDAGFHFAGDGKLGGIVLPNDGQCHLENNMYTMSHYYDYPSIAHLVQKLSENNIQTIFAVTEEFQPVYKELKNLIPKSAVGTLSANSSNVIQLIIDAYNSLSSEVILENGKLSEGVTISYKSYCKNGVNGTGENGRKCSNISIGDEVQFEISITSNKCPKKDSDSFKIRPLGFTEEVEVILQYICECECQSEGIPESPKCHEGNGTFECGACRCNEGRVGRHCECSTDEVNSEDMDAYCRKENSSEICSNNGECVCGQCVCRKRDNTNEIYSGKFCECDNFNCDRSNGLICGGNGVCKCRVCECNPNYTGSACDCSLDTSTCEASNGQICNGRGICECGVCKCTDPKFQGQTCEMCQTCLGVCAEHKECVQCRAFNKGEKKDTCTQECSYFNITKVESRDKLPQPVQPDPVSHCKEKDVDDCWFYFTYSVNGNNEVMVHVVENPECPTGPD
Assay: Solid phase integrin binding assay (TGFβ1 LAP binding)
readout.kind: IC50

// returns reported IC50 for input CC1(C(=O)N[C@@H](CCCCCCCc2ccc3c(n2)NCCC3)C(=O)O)CCOCC1 [Compound 1]
< 50 nM

----------
Target: human integrin αVβ1 (Homo sapiens, UniProt P05556+P06756)
Assay: ALPHASCREEN proximity-based integrin binding assay
Design: 6xHis (on the heterodimer)
Conditions: read-out: Proximity-Based Assy IC50, αvβ1
readout.kind: IC50

Report IC50 for `CC1(C(=O)N[C@@H](CCCCCCCc2ccc3c(n2)NCCC3)C(=O)O)CCOCC1` please.
50 to 250 nM
